test: in vivo; design: species or system mice; conditions: male, NOD.Cg-Rag1tm1Mom Il2rgtm1Wjl/SzJ (NRG), mouse, iv, total radioactivity, Biodistribution: Liver
Where a SMILES comes first, the peptide text is derived from it. Bridges are numbered along the chain shown (N, C = ends). [ ]: non-standard residue; d: D form. The star is where a group is joined. X3 = O=C(O)CN1CCN(CC(=O)O)CCN(CC(=O)N[C@@H](CS(=O)(=O)O)C(=O)N[C@@H](CCCCNC(=O)CCCc2ccc(Br)cc2)C(=O)*)CCN(CC(=O)O)CC1; X1 = O=C(O)CN1CCN(CC(=O)O)CCN(CC(=O)N[C@@H](CS(=O)(=O)O)C(=O)N[C@@H](CCCCNC(=O)CCCc2ccc(I)cc2)C(=O)*)CCN(CC(=O)O)CC1; 2Nal = N[C@@H](Cc1ccc2ccccc2c1)C(=O)O; Lys(iPr) = CC(C)NCCCC[C@H](N)C(=O)O
For each entry below, report its tissue uptake at 24 h value.

Data request, read-out tissue uptake at 24 h, for CC(C)NCCCC[C@H](NC(=O)[C@H]1CCC(=O)N[C@@H](CCCCNC(=O)[C@H](CCCCNC(=O)CCCc2ccc(I)cc2)NC(=O)[C@H](CS(=O)(=O)O)NC(=O)CN2CCN(CC(=O)O)CCN(CC(=O)O)CCN(CC(=O)O)CC2)C(=O)N[C@@H](Cc2ccc(O)cc2)C(=O)N[C@@H](CCCCNC(C)C)C(=O)N[C@H](CCCNC(=N)N)C(=O)N[C@@H](Cc2ccc3ccccc3c2)C(=O)N[C@H](C)C(=O)N1)C(N)=O [[^177Lu]Lu-BL34L11, metal not drawn] (K(X1)Y[Lys(iPr)][dR][2Nal][dA][dE][Lys(iPr)]-NH2; lactam N-7)
1.99 %ID/g

Data request, read-out tissue uptake at 24 h, for CC(C)NCCCC[C@H](NC(=O)[C@H]1CCC(=O)N[C@@H](CCCCNC(=O)[C@H](CCCCNC(=O)CCCc2ccc(Br)cc2)NC(=O)[C@H](CS(=O)(=O)O)NC(=O)CN2CCN(CC(=O)O)CCN(CC(=O)O)CCN(CC(=O)O)CC2)C(=O)N[C@@H](Cc2ccc(O)cc2)C(=O)N[C@@H](CCCCNC(C)C)C(=O)N[C@H](CCCNC(=N)N)C(=O)N[C@@H](Cc2ccc3ccccc3c2)C(=O)N[C@H](C)C(=O)N1)C(N)=O [[^177Lu]Lu-BL34L20, metal not drawn] (K(X3)Y[Lys(iPr)][dR][2Nal][dA][dE][Lys(iPr)]-NH2; lactam N-7)
0.84 %ID/g
